Where these numbers come from: ChEMBL document CHEMBL1201862

Test system: SK-OV-3
Assay: NCI tumour cell line growth inhibition, 48 h
The source made the active and inactive calls. No stated cut-off is given here; in the data, active = GI50 up to about 1.1 µM and inactive = higher.
Documented GI50 across a set of molecules

Would you please look over these solved cases?
• COc1cc(OC)c2c(=O)cc(-c3ccccc3F)[nH]c2c1 = 91.2 µM (inactive)
• C#CC1(O)CC(c2ccccc2)N(C)C(c2ccccc2)C1 (stereo not given) = > 100 µM (inactive)
• O=C(NCc1ccccc1)c1cc2ccccc2o/c1=N\c1ccccc1F = 16.5 µM (inactive)
• COc1ccc2cc(C(=O)Nc3ccc(O)c(C(=O)O)c3)ccc2c1OC = > 100 µM (inactive)

Data request: Read the entry O=[N+]([O-])c1ccccc1S(=O)(=O)c1ccccc1 and write its reported GI50.
Data returned: > 100 µM (inactive)
